Entries and their koff values follow.
# TARGET_OR_SYSTEM: T1, human serum albumin (human, UniProt P02768 25-609)
# T1 construct: Immobilised on SPR chips; also added in solution to the cell assays; also called HSA; humanSA
# ASSAY_METHOD_TEXT: SPR Biacore 3000, HSA on chip, pH 7.4

BINDER | koff / s⁻¹
TA-Fc-ABDEG-2H11-v16 (Fc fusion, Scaffold as for m24) DKTHTCPPCPAPELLGGPSVFLFPPKPKDTLYITREPEVTCVVVDVSHEDPEVKFNWYVDGVEVHNAKTKPREEQYNSTYRVVSVLTVLHQDWLNGKEYKCKVSNKALPAPIEKTISKAKGQPREPQVYTLPPSRDELTKNQVSLTCLVKGFYPSDIAVEWESNGQPENNYKTTPPVLDSDGSFFLYSKLTVDKSRWQQGNVFSCSVMHEALKFHYTQKSLSLSPGGGGGSGGGGSGGGGSGGGGSELQVVESGGGLVQAGGSLRLSCAASGRTFRSNTMGWFRQAPGKEREFVAAITWSGGTTYYADSVKGRFAISGDNAKNTVYLQMNSLKPEDTAVYYCAAEGPKWEPWNGIYHPADAGSWGQGTQVTVSS | 0.00193
TA-Fc-ABDEG-2H11-v3 (Fc fusion) DKTHTCPPCPAPELLGGPSVFLFPPKPKDTLYITREPEVTCVVVDVSHEDPEVKFNWYVDGVEVHNAKTKPREEQYNSTYRVVSVLTVLHQDWLNGKEYKCKVSNKALPAPIEKTISKAKGQPREPQVYTLPPSRDELTKNQVSLTCLVKGFYPSDIAVEWESNGQPENNYKTTPPVLDSDGSFFLYSKLTVDKSRWQQGNVFSCSVMHEALKFHYTQKSLSLSPGGGGGSGGGGSGGGGSGGGGSELQVVESGGGLVQAGGSLRLSCAASGRTFRSNTMGWFRQAPGKEREFVAAITWSGGTTYYADSVKGRFAISGDNAKNTVYLQMNSLKPEDTAVYYCAAEGAKWEPWNGIYHPADFGSWGQGTQVTVSS | 0.0029
TA-Fc-ABDEG-2H11-v12 (Fc fusion, Scaffold as for m24) DKTHTCPPCPAPELLGGPSVFLFPPKPKDTLYITREPEVTCVVVDVSHEDPEVKFNWYVDGVEVHNAKTKPREEQYNSTYRVVSVLTVLHQDWLNGKEYKCKVSNKALPAPIEKTISKAKGQPREPQVYTLPPSRDELTKNQVSLTCLVKGFYPSDIAVEWESNGQPENNYKTTPPVLDSDGSFFLYSKLTVDKSRWQQGNVFSCSVMHEALKFHYTQKSLSLSPGGGGGSGGGGSGGGGSGGGGSELQVVESGGGLVQAGGSLRLSCAASGRTFRSNTMGWFRQAPGKEREFVAAITWSGGTTYYADSVKGRFAISGDNAKNTVYLQMNSLKPEDTAVYYCAAEGPKWEPWNGIAHPADFGSWGQGTQVTVSS | 0.0012
